system: Candida albicans; experiment: In vitro antifungal activity against Candida albicans (ATCC 10231); type: functional
MEASUREMENT TYPE: MIC

Problem: Given the entry `CC1(C)C=C(C(=O)O)C(=O)c2cc3c(cc21)CCO3` , what MIC was observed with Candida albicans?
Result: > 500 µg/mL

Problem: Item `COc1cc2c(cc1OC)C(C)(C)C=C(C(=O)O)C2=O` with Candida albicans - MIC?
Result: > 100 µg/mL

Problem: Lookup: MIC / Candida albicans / `CCn1cc(C(=O)O)c(=O)c2ccc(C)nc21`
Result: > 100 µg/mL

Problem: Query MIC on Candida albicans for `CCn1cc(C(=O)O)c(=O)c2cc3c(cc21)OCO3`
Result: > 100 µg/mL

Problem: # query: MIC | item `CC1(C)C=C(C(=O)O)C(=O)c2ccc3c(c21)OCC3` | system: Candida albicans
Result: > 100 µg/mL

Problem: Report MIC for `CC1(C)C=C(C(=O)O)C(=O)c2cc3c(cc21)OCO3` tested on Candida albicans.
Result: > 500 µg/mL

Problem: Recall the recorded MIC for `CC1(C)C=C(C(=O)O)C(=O)c2ccccc21` with Candida albicans and state it.
Result: > 250 µg/mL

----------
system: Mycolicibacterium smegmatis; assay: In vitro antifungal activity against Mycobacterium smegmatis (ATCC 607); type: functional
MEASUREMENT TYPE: MIC (µg/mL)

// below: answered compounds
* CC1(C)C=C(C(=O)O)C(=O)c2cc3c(cc21)CCO3 | 500
* CCn1cc(C(=O)O)c(=O)c2cc3c(cc21)OCO3 | 50

a. CC1(C)C=C(C(=O)O)C(=O)c2cc3c(cc21)OCO3
b. CC1(C)C=C(C(=O)O)C(=O)c2ccccc21
Problem: Endpoint returns whichever of a and b has the numerically higher MIC. Field: selected label. Fill in the label of the entry you choose.
Result: a
(a: 500 µg/mL, b: 50 µg/mL)

----------
Recorded MIC, one value per entry.
system: Mycolicibacterium smegmatis; test: In vitro antifungal activity against Mycobacterium smegmatis (ATCC 607); type: functional

Some compounds with known MIC results, for comparison:
* CCn1cc(C(=O)O)c(=O)c2ccc(C)nc21 | > 100 µg/mL
* CC1(C)C=C(C(=O)O)C(=O)c2ccc3c(c21)OCC3 | > 100 µg/mL

Problem: So what does the record say about MIC for `COc1cc2c(cc1OC)C(C)(C)C=C(C(=O)O)C2=O` ?
Result: > 100 µg/mL
